# TESTED_SYSTEM: Voltage-gated potassium channel subunit beta-2 (Rattus norvegicus)
# METHOD: enhancers of rat Kvbeta2 NADPH turnover – biochemical, NADPH fluorescence, primary screen (AID 623);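 further: fluorescence intensity change per second fitted from 20 to 320 s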
# EXPERIMENTAL_CONDITIONS: Recombinant KvBeta, NADPH fluorescence decrease slope, 10 min; at 10 µM; stronger effect = lower value
MEASURE_NAME: NADPH fluorescence slope
Just the number, please, no unit after it.

Example entries begin here.
1. O=C(CN(CCc1ccccc1)C(=O)CN1C(=O)COc2ccccc21)NCc1ccco1 = -3.2e-06
2. CN=C(Nc1cc(C)nn1-c1ccccc1)c1ccccc1 = -2.6e-05

Form: Entry = "C/C(N)=C(/C#N)C(=O)COC(=O)c1cc(C)n(-c2ccc(F)cc2)c1C" | System = Voltage-gated potassium channel subunit beta-2 (Rattus norvegicus) | NADPH fluorescence slope = ____
1.6e-05

So what NADPH fluorescence slope did "O=C(c1cc(C2CC2)on1)N1CCN(C(c2ccccc2)c2ccccc2)CC1" get with Voltage-gated potassium channel subunit beta-2 (Rattus norvegicus)?
-7.4e-06

Give the reported NADPH fluorescence slope for CC(c1ccco1)N(Cc1ccco1)C(=O)Nc1ccccc1 (stereo not drawn) (system: Voltage-gated potassium channel subunit beta-2 (Rattus norvegicus)).
5.2e-05

// fetch Voltage-gated potassium channel subunit beta-2 (Rattus norvegicus) NADPH fluorescence slope for "O=C(Nc1nnc(N2CCCCCC2)s1)c1cc(-c2ccc(Br)cc2)on1"
-2.8e-06

Please tell me: NADPH fluorescence slope of CCN1CCN(C(=O)C2CC(c3ccc(F)cc3)=NO2)CC1 (stereo not drawn) , system Voltage-gated potassium channel subunit beta-2 (Rattus norvegicus)?
-4e-05

Enter reported NADPH fluorescence slope observed with Voltage-gated potassium channel subunit beta-2 (Rattus norvegicus) for "C/C=C(\C)c1nnc(NC(=O)C(C)C)s1"
2.8e-06
